# Tested on: DU-145 cells
# Method: antiproliferative activity against DU-145 cells
# Type: cell-based, human
# Run parameters: means of three experiments ± standard deviation, Inactive = <20% DU-145 growth inhibition at 50 μM
Value type: GI50

>>> readout_value("CC(C)(C)NC(=O)N1CCC(c2nc(-c3ccc(F)cc3)no2)CC1")
"Inactive"
>>> readout_value("O=C(N1CCC(c2nc(-c3ccc(F)cc3)no2)CC1)N1CCCc2ccccc21")
"Inactive"
>>> readout_value("O=C(N1CCOCC1)N1CCC(c2nc(-c3ccc(F)cc3)no2)CC1")
"Inactive"
